assay: Odor threshold and odor value of perfuming compounds (Tables 4 to 10); conditions: Table 8, perfuming compounds having a sweet note
I'd be grateful if you could share measured Odor Value for these entries.

Consider the reported Odor Value for these molecules:
{"columns": ["molecule", "Odor Value"],
 "data": [
  ["CCCCCC1CCCC(=O)O1 (racemic) [(+−)-6-pentyltetrahydro-2H-pyran-2-one]", "2.58E+05"],
  ["OCCc1ccccc1", "1.56E+06"],
  ["CC/C=C\\CCOC(=O)C/C=C\\CC [(3Z)-3-hexen-1-yl (3Z)-3-hexenoate]", "4.08E+03"],
  ["COc1ccc2ccccc2c1", "5.00E+06"]
]}

I need Odor Value for every entry listed below, if you could help.
1. Cc1ncsc1CCO
2. CCCCO
3. CCOC(=O)C(=O)C(C)CC (racemic) [(+−)-ETHYL 3-METHYL-2-OXOPENTANOATE]

["9.71E+03", "2.03E+05", "4.50E+06"]

###

test: Volatility of perfuming compounds (Tables 4 to 10), with top/middle/bottom note type; type: physicochemical; settings: Table 9, gourmand note
Classes by Volatility: bin A: < 70 μg/l air; bin B: ≥ 70 μg/l air and < 200 μg/l air; bin C: ≥ 200 μg/l air

{"columns": ["compound", "cat"],
 "data": [
  ["CC(C)C(=O)OCCc1ccccc1 [2-PHENYLETHYL ISOBUTYRATE]", "bin A"],
  ["CC(=O)C(C)O (racemic) [(+−)-3-HYDROXY-2-BUTANONE]", "bin C"],
  ["C=C1CCCC(C)(C)C1C(=O)/C=C/C (racemic)", "bin B"],
  ["CCC(CC(C)CC)=NO (centres unmarked)", "bin B"],
  ["OCCc1ccccc1", "bin B"],
  ["C=CCOC(=O)CCC1CCCCC1 [ALLYL 3-CYCLOHEXYLPROPANOATE]", "bin B"],
  ["C=C(C)CC(C)OC(=O)C(C)C (racemic)", "bin C"],
  ["CCCCCC1CCC(=O)O1 (racemic) [(+−)-4-NONANOLIDE]", "bin A"]
]}

Query compound follows.
Pick a category. Item: O=C(Cc1ccccc1)OCCc1ccccc1 [2-PHENYLETHYL PHENYLACETATE] bin A

###

I'd be grateful if you could share measured Volatility (μg/l air) for these entries.
Assay: Volatility of perfuming compounds (Tables 4 to 10), with top/middle/bottom note type
Format: physicochemical
Settings: perfuming compounds having a green note
Procedure: In some aspects, the first perfume accord comprises perfuming compounds having a volatility ranging from 70,000 to 100 μg/l in air. In some aspects, perfuming compounds having a volatility ranging from 70,000 to 100 μg/l in air are referred to as “top notes”. In some aspects, the second perfume accord comprises perfuming compounds having a volatility ranging from 99 to 50 μg/l in air. […]
Where a name gives a salt, the structure may show the parent alone.
Number plus unit, in that order.

Consider the reported Volatility (μg/l air) for these compounds:
{"columns": ["compound", "test result"],
 "data": [
  ["CCOC(=O)CC1(C)OCCO1 [ETHYL 2-METHYL-1,3-DIOXOLANE-2-ACETATE]", "479.20 μg/l air"],
  ["O=COCc1ccccc1 [BENZYL FORMATE]", "1339.53 μg/l air"],
  ["CCOC(=O)C12CCCC1C1CCC2C1 (centres unmarked)", "111.67 μg/l air"],
  ["N#CC(=C1CCCCC1)c1ccccc1", "0.96 μg/l air"],
  ["CC(CC=O)CC(C)(C)C (racemic) [(+−)-3,5,5-TRIMETHYLHEXANAL]", "12045.92 μg/l air"],
  ["COC(=O)C1C(C)=CCCC1(C)C (racemic)", "2010.91 μg/l air"]
]}

I need Volatility (μg/l air) for every entry listed below, if you could help.
1. COCC(C)Cc1ccccc1 (racemic) [(+−)-(3-methoxy-2-methylpropyl)benzene]
2. CCCCC/C=C\C=C\C(=O)OCC [ethyl (2E,4Z)-2,4-decadienoate]

1: 587.76 μg/l air; 2: 36.76 μg/l air

I need Volatility (μg/l air) for every entry listed below, if you could help.
1. CC1=C[C@H]2C[C@H](C(C)C)[C@@H]1[C@@H](C1OCCO1)C2 (racemic)
2. C=CCOC(=O)COc1ccccc1 [ALLYL PHENOXYACETATE]
3. COC(C)(C)[C@H]1CC=C(C)CC1
4. CC(C)[C@@H]1CC[C@@H](C)CC1=NO
5. COc1nccnc1CCCC(C)C
6. CCC(C)(O)CCCC(C)C (racemic)

11.75 μg/l air
9.94 μg/l air
993.39 μg/l air
22.29 μg/l air
195.24 μg/l air
421.15 μg/l air

I need Volatility (μg/l air) for every entry listed below, if you could help.
1. COc1nccnc1CC(C)C
2. CCCCCC(=O)O
3. CC/C=C\CCOC(=O)c1ccccc1 [(3Z)-3-hexen-1-yl benzoate]
4. CCCOC(C)OCCc1ccccc1 (centres unmarked)
5. CC/C=C\CCOC(=O)C(C)CC (racemic) [(+−)-(Z)-3-HEXENYL 2-METHYLBUTANOATE]
6. CC(C)c1cccc(C(C)CC=O)c1 (racemic) [(+−)-3-(3-ISOPROPYL-1-PHENYL)BUTANAL]
7. CC(C)C(=O)OCCOc1ccccc1 [2-phenoxyethyl 2-methylpropanoate]
8. O=Cc1ccccc1

1: 1617.21 μg/l air; 2: 197.90 μg/l air; 3: 11.05 μg/l air; 4: 59.63 μg/l air; 5: 833.05 μg/l air; 6: 14.74 μg/l air; 7: 10.05 μg/l air; 8: 8207.00 μg/l air

For C=CC(C)=CCC=C(C)C , what is its reported Volatility (μg/l air)? 3480.57 μg/l air

###

assay: Odor threshold and odor value of perfuming compounds (Tables 4 to 10); settings: Table 7, citrus note; equals volatility divided by odor threshold
Classes by Odor Value: bin 1 (below 5000), bin 2 (5000 to below 40000), bin 3 (40000 or more)

Worked examples follow.
{"columns": ["molecule", "cat"],
 "data": [
  ["CCC/C=C/C=O", "bin 3"],
  ["O=C1CCCCCCC/C=C/CCCCCCO1 [(10E)-oxacycloheptadec-10-en-2-one]", "bin 1"],
  ["CCCOC(=O)[C@H](C)OC(C)(C)CC", "bin 1"],
  ["C=C(C)C1CC=C(C)CC1 (single isomer, unassigned; (+)) [(+)-LIMONENE]", "bin 3"],
  ["CCCCCCCOC(C)=O [heptyl acetate]", "bin 2"]
]}

Pick a category. Item: O=C(OCc1ccccc1)c1ccccc1 [BENZYL BENZOATE] bin 1

Pick a category. Item: C=CC(C)CC(=O)CC(C)C (racemic) bin 2

Pick a category. Item: CC(=O)OC(c1ccccc1)C(Cl)(Cl)Cl (racemic) bin 2

Pick a category. Item: CC(C)(O)CCC1CCCCC1 bin 1

Pick a category. Item: CCCCCCOC(=O)c1ccccc1O [HEXYL 2-HYDROXYBENZOATE] bin 1

Pick a category. Item: CC(=O)OC(C)c1ccccc1 (racemic) [(+−)-1-PHENYLETHYL ACETATE] bin 2

Pick a category. Item: CC(C)=CCCC(C)CCOCC=O (racemic) bin 2

Pick a category. Item: CC1=CCC(C(C)C)=CC1 bin 2

Pick a category. Item: CCOc1ccc2ccccc2c1 bin 2

Pick a category. Item: CCC(C)C(=O)OC(C)C (racemic) [(+−)-ISOPROPYL 2-METHYLBUTANOATE] bin 3

Pick a category. Item: CCCCCCCCOC(C)=O [octyl acetate] bin 1

Pick a category. Item: CCCCCC(C#N)CCC (racemic) [(+−)-2-propylheptanenitrile] bin 2

Pick a category. Item: CCCCC/C=C/CCC=O [(E)-4-DECENAL] bin 3

Pick a category. Item: CCCCCC=O bin 3

Pick a category. Item: C=CC(C)(O)CCC=C(C)C (racemic) [(+−)-3,7-dimethyl-1,6-octadien-3-ol] bin 3

Pick a category. Item: CC(C)CCCC(C)CCO (racemic) bin 1

###

experiment: Volatility of perfuming compounds (Tables 4 to 10), with top/middle/bottom note type; type: physicochemical; conditions: perfuming compounds having a green note
Classes by Volatility (μg/l air): bottom = under 100 μg/l air, middle = from 100 μg/l air up to 3000 μg/l air, top = 3000 μg/l air and over

{"columns": ["molecule", "cat"],
 "data": [
  ["C=CC(C)(CCC=C(C)C)OC(C)=O (racemic)", "middle"]
]}

Pick a category. Item: C/C=C(\C)C(=O)OCCCCCC [hexyl (2E)-2-methyl-2-butenoate] middle

Pick a category. Item: CCCCCC/C(C=O)=C\c1ccccc1 bottom

Pick a category. Item: CC1=C[C@H](C)[C@H]2[C@H](CCC(C)(C)[C@H]2O)C1 (racemic) bottom

Pick a category. Item: CCCC(C)C(=O)OCC (racemic) [(+−)-ETHYL 2-METHYLPENTANOATE] top

Pick a category. Item: CCCCCCC=O top

Pick a category. Item: CC(=O)CCC=C(C)C top

Pick a category. Item: C=C/C=C/C=C\CCCCC middle

Pick a category. Item: CCOC(=O)CC(C)=O middle

Pick a category. Item: CCOC(=O)C(=O)C(C)CC (racemic) [(+−)-ETHYL 3-METHYL-2-OXOPENTANOATE] middle

Pick a category. Item: CC/C=C\CCOC(=O)c1ccccc1O [(3Z)-3-hexen-1-yl salicylate] bottom

Pick a category. Item: CCC(CC(C)CC)=NO (stereo not drawn) middle

Pick a category. Item: C=CC1(C)CCCC(C)(C)O1 (racemic) top

Origin of values: patent US20240301319A1
